- Tested on: 997726-040-R-J2-PDC tumor spheroids, viability
- protocol_notes: Anticancer human tumor 997726-040-R-J2-PDC patient-derived squamous cell lung carcinoma cell line growth inhibition [PI3K]; active means viability on the fitted dose curve at most 10% of control; inactive means the rest
- experimental_conditions: second compound 10 µM; first compound 3.16 µM; spheroids with HUVEC and MSC
Bench note: report the call from class 1 (active), class 0 (inactive)

[
  {
    "compound": "CC1(C)CCC(Nc2ncc(C(F)(F)F)c(-c3c[nH]c4c(P(C)(C)=O)c(C#N)ccc34)n2)CN1 (stereo not drawn) + Cc1nc(NC(=O)N2CCCC2C(N)=O)sc1-c1ccnc(C(C)(C)C(F)(F)F)c1",
    "assigned_class": "class 1"
  },
  {
    "compound": "C[C@@H](NC(=O)c1ncnc(N)c1Cl)c1ncc(C(=O)Nc2cc(C(F)(F)F)c(Cl)cn2)s1 + Cc1nc(NC(=O)N2CCCC2C(N)=O)sc1-c1ccnc(C(C)(C)C(F)(F)F)c1",
    "assigned_class": "class 0"
  }
]

Query compound follows.
What outcome does the record of this test show for CC(C)NCC(C(=O)N1CCN(c2ncnc3c2C(C)CC3O)CC1)c1ccc(Cl)cc1 (stereo not drawn) + Cc1nc(NC(=O)N2CCCC2C(N)=O)sc1-c1ccnc(C(C)(C)C(F)(F)F)c1 ?
class 1

====

- Test system: 997726-040-R-J2-PDC tumor spheroids, viability
- protocol_notes: Anticancer human tumor 997726-040-R-J2-PDC cell line growth inhibition [PI3K];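 further: spheroids exposed to compounds for seven days before readout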
- experimental_conditions: second compound 1 µM; first compound 0.0949 µM; stronger effect = lower value; spheroids with HUVEC and MSC
reported_metric: viability, T/C (%)
Please reply with the bare figure in % and do not write the unit itself.

Consider the reported viability, T/C for these molecules:
[
  {
    "molecule": "Cn1cnc2c(F)c(Nc3ccc(Br)cc3Cl)c(C(=O)NOCCO)cc21 + CC(Nc1ccc2c(c1)OCCn1cc(N3C(=O)OCC3C(F)F)nc1-2)C(N)=O",
    "assay_system": "997726-040-R-J2-PDC tumor spheroids, viability",
    "viability, T/C (%)": 21.7
  },
  {
    "molecule": "Cn1cnc2c(F)c(Nc3ccc(Br)cc3Cl)c(C(=O)NOCCO)cc21 + CC(Nc1ncnc2nc[nH]c12)c1cc2cccc(Cl)c2c(=O)n1-c1ccccc1",
    "assay_system": "997726-040-R-J2-PDC tumor spheroids, viability",
    "viability, T/C (%)": 51.5
  },
  {
    "molecule": "Cn1cnc2c(F)c(Nc3ccc(Br)cc3Cl)c(C(=O)NOCCO)cc21 + COc1c(OCCCN2CCOCC2)ccc2c3n(c(=NC(=O)c4cnc(N)nc4)nc12)CCN3",
    "assay_system": "997726-040-R-J2-PDC tumor spheroids, viability",
    "viability, T/C (%)": 0.66
  }
]

From here, focus on the item given below.
Recorded result, Cn1cnc2c(F)c(Nc3ccc(Br)cc3Cl)c(C(=O)NOCCO)cc21 + Cc1nc(NC(=O)N2CCCC2C(N)=O)sc1-c1ccnc(C(C)(C)C(F)(F)F)c1 , viability, T/C: 29.4

====

- Test system: 997726-040-R-J2-PDC tumor spheroids, viability
- protocol_notes: Anticancer human tumor 997726-040-R-J2-PDC cell line growth inhibition [PI3K];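 further: spheroids exposed to compounds for seven days before readout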
- experimental_conditions: second compound 0.316 µM; first compound 0.0316 µM; stronger effect = lower value; spheroids with HUVEC and MSC
Rule: viability, T/C below 6% gives Met. Equal to or above 6% gives Not met.

Solved cases below.
[
  {
    "compound": "Cn1nccc1Nc1nccc(-c2ccn(C(CO)c3ccc(Cl)c(F)c3)c(=O)c2)n1 (stereo unspecified) + CC(Nc1ncnc2nc[nH]c12)c1cc2cccc(Cl)c2c(=O)n1-c1ccccc1",
    "assay_system": "997726-040-R-J2-PDC tumor spheroids, viability",
    "assigned_class": "Not met"
  },
  {
    "compound": "CNC(=O)c1ccc(N2C(=S)N(c3ccc(C#N)c(C(F)(F)F)c3)C(=O)C2(C)C)cc1F + CC(Nc1ncnc2nc[nH]c12)c1cc2cccc(Cl)c2c(=O)n1-c1ccccc1",
    "assay_system": "997726-040-R-J2-PDC tumor spheroids, viability",
    "assigned_class": "Not met"
  },
  {
    "compound": "CC(=O)c1c(C)c2cnc(Nc3ccc(N4CCNCC4)cn3)nc2n(C2CCCC2)c1=O + CC(Nc1ccc2c(c1)OCCn1cc(N3C(=O)OCC3C(F)F)nc1-2)C(N)=O",
    "assay_system": "997726-040-R-J2-PDC tumor spheroids, viability",
    "assigned_class": "Not met"
  },
  {
    "compound": "CC(C)n1nc(-c2ccc3oc(N)nc3c2)c2c(N)ncnc21 + COc1c(OCCCN2CCOCC2)ccc2c3n(c(=NC(=O)c4cnc(N)nc4)nc12)CCN3",
    "assay_system": "997726-040-R-J2-PDC tumor spheroids, viability",
    "assigned_class": "Met"
  }
]

Query compound follows.
Does Cn1ncc(Cl)c1-c1cc(C(=O)NC(CN)Cc2cccc(F)c2)sc1Cl (stereo unspecified) + CC(Nc1ncnc2nc[nH]c12)c1cc2cccc(Cl)c2c(=O)n1-c1ccccc1 have viability, T/C strictly under 6%?
Not met

====

- Tested on: 997726-040-R-J2-PDC tumor spheroids, viability
- protocol_notes: Anticancer human tumor 997726-040-R-J2-PDC cell line growth inhibition [PI3K];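 further: spheroids exposed to compounds for seven days before readout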
- experimental_conditions: second compound 0.1 µM; first compound 10 µM; stronger effect = lower value; spheroids with HUVEC and MSC
viability, T/C listing for selected compounds.
Please reply with the bare figure in % and do not write the unit itself.

Consider the reported viability, T/C for these compounds:
[
  {
    "compound": "CC1(C)CCC(CN2CCN(c3ccc(C(=O)NS(=O)(=O)c4ccc(NCC5CCOCC5)c([N+](=O)[O-])c4)c(Oc4cnc5[nH]ccc5c4)c3)CC2)=C(c2ccc(Cl)cc2)C1 + Cc1nc(NC(=O)N2CCCC2C(N)=O)sc1-c1ccnc(C(C)(C)C(F)(F)F)c1",
    "endpoint_value": 25.7
  },
  {
    "compound": "CC1(C)CCC(CN2CCN(c3ccc(C(=O)NS(=O)(=O)c4ccc(NCC5CCOCC5)c([N+](=O)[O-])c4)c(Oc4cnc5[nH]ccc5c4)c3)CC2)=C(c2ccc(Cl)cc2)C1 + COc1c(OCCCN2CCOCC2)ccc2c3n(c(=NC(=O)c4cnc(N)nc4)nc12)CCN3",
    "endpoint_value": 9.14
  },
  {
    "compound": "Cn1ncc(Cl)c1-c1cc(C(=O)NC(CN)Cc2cccc(F)c2)sc1Cl (configuration not stated) + Cc1nc(NC(=O)N2CCCC2C(N)=O)sc1-c1ccnc(C(C)(C)C(F)(F)F)c1",
    "endpoint_value": 6.2
  },
  {
    "compound": "C#Cc1c(F)ccc2cc(O)cc(-c3ncc4c(N5CC6CCC(C5)N6)nc(OCC56CCCN5CC(F)C6)nc4c3F)c12 (configuration not stated) + COc1c(OCCCN2CCOCC2)ccc2c3n(c(=NC(=O)c4cnc(N)nc4)nc12)CCN3",
    "endpoint_value": 17.6
  },
  {
    "compound": "C[C@@H](NC(=O)c1ncnc(N)c1Cl)c1ncc(C(=O)Nc2cc(C(F)(F)F)c(Cl)cn2)s1 + CC(Nc1ccc2c(c1)OCCn1cc(N3C(=O)OCC3C(F)F)nc1-2)C(N)=O",
    "endpoint_value": 40.5
  }
]

Recorded result, C#Cc1c(F)ccc2cc(O)cc(-c3ncc4c(N5CC6CCC(C5)N6)nc(OCC56CCCN5CC(F)C6)nc4c3F)c12 (configuration not stated) + CC(Nc1ncnc2nc[nH]c12)c1cc2cccc(Cl)c2c(=O)n1-c1ccccc1 , viability, T/C: 73.3

Recorded result, CC1(C)CCC(Nc2ncc(C(F)(F)F)c(-c3c[nH]c4c(P(C)(C)=O)c(C#N)ccc34)n2)CN1 (configuration not stated) + Cc1nc(NC(=O)N2CCCC2C(N)=O)sc1-c1ccnc(C(C)(C)C(F)(F)F)c1 , viability, T/C: 5.28

====

- Test system: 997726-040-R-J2-PDC tumor spheroids, viability
- protocol_notes: Anticancer human tumor 997726-040-R-J2-PDC cell line growth inhibition [PI3K];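 further: spheroids exposed to compounds for seven days before readout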
- experimental_conditions: second compound 0.01 µM; first compound 0.1 µM; stronger effect = lower value; spheroids with HUVEC and MSC
- Source text: Combinatorial screen of targeted agents with the PI3K inhibitors inavolisib, alpelisib, duvelisib, and copanlisib in multi-cell type tumor spheroids A high-throughput screen of multi-cell type tumor spheroids was designed to identify active combinations of targeted small molecules and PI3K pathway inhibitors. […] Compounds. […] If the clinical Cmax for an agent had not been determined, the highest concentration tested was 10 microM. […]
viability, T/C listing for selected molecules.
Please reply with the bare figure in % and do not write the unit itself.

Consider the reported viability, T/C for these molecules:
[
  {
    "molecule": "CC(C)NCC(C(=O)N1CCN(c2ncnc3c2C(C)CC3O)CC1)c1ccc(Cl)cc1 (stereo not drawn) + COc1c(OCCCN2CCOCC2)ccc2c3n(c(=NC(=O)c4cnc(N)nc4)nc12)CCN3",
    "unit_symbol": "%",
    "viability, T/C": 49.6
  },
  {
    "molecule": "Cn1nccc1Nc1nccc(-c2ccn(C(CO)c3ccc(Cl)c(F)c3)c(=O)c2)n1 (stereo not drawn) + CC(Nc1ccc2c(c1)OCCn1cc(N3C(=O)OCC3C(F)F)nc1-2)C(N)=O",
    "unit_symbol": "%",
    "viability, T/C": 72.6
  }
]

From here, focus on the item given below.
Recorded result, C=CC(=O)N1CCN(c2nc(=O)n(-c3c(C)ccnc3C(C)C)c3nc(-c4c(O)cccc4F)c(F)cc23)C(C)C1 (stereo not drawn) + CC(Nc1ccc2c(c1)OCCn1cc(N3C(=O)OCC3C(F)F)nc1-2)C(N)=O , viability, T/C: 81.7
